# Tested on: SN12C renal
# ASSAY NAME: NCI-60 one-dose screen, 48 h
# PROTOCOL CONDITIONS: 10 µM unless noted
The panel holds about 83,000 compounds, 20% with a hit somewhere; the sample as a whole holds those more often. Active and inactive are the calls of the source. Rule for the calls: active = growth percent below 10; inactive = the rest.
Write down the outcome that applies. Available outcomes: active, inactive

-- ask Status in this test for N=C(N)c1ccc(-c2ccc(-c3cccs3)s2)cc1F ?
-- reply active

-- ask // outcome(item) with item = CC(=O)c1ccc(N2C(=O)c3ccc(Oc4ccccc4)cc3C2=O)cc1
-- reply inactive

-- ask Write down the call the test reported for this molecule. Item: CC1CCCN(CCCCOc2ccc(-c3ccc(C#N)cc3)cc2)C1 (centres undefined)
-- reply inactive

-- ask Assay outcome for COc1cc(C2CC(c3ccc(C)cc3)=NN2C=O)ccc1Oc1nc2c(c(=O)n(C)c(=O)n2C)n1C (centres undefined) : what was it?
-- reply inactive

---

# System: SK-MEL-28 melanoma
# ASSAY NAME: NCI-60 one-dose screen, 48 h (100 = growth as untreated, 0 = no growth, -100 = all killed)
# PROTOCOL CONDITIONS: 10 µM unless noted
This is part of a sample that, as a whole, favours compounds with a hit. Of some 83,000 tested, about 20% had one in any assay.
READOUT KIND: growth (%)
Dear colleague, please return just the value in %, with no unit written.

-- ask Any idea what growth came out for COc1ccc2c(c1)OC1=C(C(=O)OC1)C2c1cc(OC)c2c(c1)OCCO2 (stereo not drawn) on SK-MEL-28 melanoma?
-- reply 45.4

-- ask Record CC(=O)CC(c1ccc([N+](=O)[O-])cc1)c1c(O)c2ccccc2oc1=O (stereo not drawn) : what is its growth with SK-MEL-28 melanoma?
-- reply 113

-- ask SK-MEL-28 melanoma / growth / CCN1C(=O)C(C)C=C(C)C=C1C (stereo not drawn) : value?
-- reply 116

---

# Tested on: MALME-3M melanoma
# ASSAY NAME: NCI-60 one-dose screen, 48 h (100 = growth as untreated, 0 = no growth, -100 = all killed)
# PROTOCOL CONDITIONS: 10 µM unless noted
Compounds without any hit were thinned out: in the full panel of roughly 83,000, 20% have a hit.
Please provide measured growth for the entries that follow.
Respond numerically; units are % and should not be typed.

-- ask Tell me the measured growth of N=c1nc(N2CCCCC2)cc(N)n1O , please.
-- reply 145

-- ask Tell me the measured growth of O=C1C=CN2C(=O)CC=CC2[C@@H]1O (stereo not given in full) , please.
-- reply 133

-- ask Name the reported growth value associated with the compound COc1ccc(/C=N/NC(N)=S)c(OC)n1
-- reply 103

-- ask Please report the recorded growth for Cn1cnc([N+](=O)[O-])c1S(=O)(=O)Oc1cccc2ccccc12 .
-- reply -39.9

-- ask Quick one: growth of COc1cc(OC)c2sc(-c3ccc(-n4cncc4-c4ccc(OC)c(N)c4)cc3)nc2c1 ?
-- reply 82.4

-- ask Value lookup for growth; key = COc1ccc(-c2cc(C(=O)Nc3ccc(Br)cc3)nc3[nH]c(=O)sc23)cc1
-- reply 25

-- ask # lookup: growth of O=C1Nc2ccc(Cl)cc2/C1=C\c1c(-c2ccc(F)cc2)nc2ccccn12
-- reply 16.6

-- ask Can you look up the measured growth of CSc1nc(N)c2[nH]c(-c3cc4ccccc4[nH]c3=O)nc2n1 for me?
-- reply 90.7

-- ask # growth lookup, item COc1ccc(-c2nc3ccccc3n3cccc23)cc1
-- reply 127

-- ask Consider the compound shown here: O=C1Nc2ccccc2/C1=C\c1nc(C2CCN(S(=O)(=O)c3ccc(F)cc3)CC2)n2ccccc12 What is its recorded growth?
-- reply 3.9

-- ask What does the data say about its growth? Entry: COc1cc(/C=C\c2cc(/C=C\c3ccc(O)c(OC)c3)n(C(=O)Nc3ccc(C(F)(F)F)cc3)n2)ccc1O
-- reply 52.3

-- ask Consider the compound CCOC(=O)c1cc(C(=O)OCC)c(C)nc1C and give its measured growth.
-- reply 104

-- ask Need growth of COc1ccc2nc3cc(Cl)ccc3c(NC(=O)CSc3ccc(Cl)cc3)c2c1 , thanks.
-- reply -77.1

-- ask For CCn1c(Cc2ccccc2Nc2c(Cl)cccc2Cl)nnc1SCC(=O)Nc1cccc(OC)c1 , what is its reported growth?
-- reply 94.3

-- ask Consider the compound shown here: C=C(C)[C@@H]1CC[C@]2(C(=O)NS(=O)(=O)c3ccccc3)CC[C@]3(C)[C@H](CC[C@@H]4[C@@]5(C)CC[C@H](OC(=O)NS(=O)(=O)c6ccccc6)C(C)(C)[C@@H]5CC[C@]43C)[C@@H]12 What is its recorded growth?
-- reply 11.3

-- ask So what's the measured growth for this one? COc1cc(OC)c(C(=O)/C=C/c2cccc(OC(C)=O)c2)cc1CC=C(C)C
-- reply 122

-- ask Which measured growth value corresponds to O=C(CCl)Nc1cc(O)c2c(c1)C(=O)c1cccc(O)c1C2=O ?
-- reply -72.9

-- ask Which growth reading was recorded for the compound CCN(CC)CCNC(=O)n1cc(-c2ccncc2)c(-c2ccc(Cl)c(OC)c2)n1 ?
-- reply 114

-- ask Which growth is listed for CC1=C(O)C(=O)CC1 ?
-- reply 104

-- ask Given CN1C2CCC1/C(=C\c1ccc(Cl)cc1)C(=O)/C2=C/c1ccc(Cl)cc1 , state its recorded growth.
-- reply 73.7

-- ask Param item = COc1ccccc1CNCCCN1C(=O)c2ccc3c4c(ccc(c24)C1=O)C(=O)N(CCCNCCCN)C3=O ; retrieve measured growth.
-- reply -41.9

-- ask What measured growth goes with COc1ccc(-c2cc(-c3ccc(OC)cc3)c3sc(=O)[nH]c3n2)cc1 ?
-- reply 109

-- ask Look at this compound and give its reported growth. NS(=O)(=O)c1ccc(CCn2c(SCC(=O)N/N=C/c3ccccc3O)nc3ccccc3c2=O)cc1
-- reply 62.3

-- ask Report growth for CCCCCN(CCCCC)C(=O)C(CCC(=O)O)NC(=O)c1ccc(Cl)c(Cl)c1 (stereo not given) please.
-- reply 104

-- ask If you can, please state the reported growth value of O=c1oc2ccccc2cc1-c1cc(-c2ccc(-c3cc(-c4cc5ccccc5oc4=O)nc(-c4cc5ccccc5oc4=O)c3)cc2)cc(-c2cc3ccccc3oc2=O)n1 .
-- reply 98.3

-- ask # input compound: CC(C)CCSc1nc(Nc2ccccc2)c(C#N)c(-c2ccc(F)cc2)n1 ; wanted: its growth
-- reply 68.4

-- ask Requested field: growth. Item: CCN(CC)CCNC(=O)n1cc(-c2ccncc2)c(-c2cc(Cl)cc(OC)c2)n1
-- reply 111

-- ask Using the record for C=C1C(=O)O[C@H]2[C@H]1CC/C(COC(=O)NCc1cccc(OC)c1)=C\CC[C@@]1(C)O[C@@H]21 , report its growth.
-- reply -26.4

-- ask Can you share its growth? I mean this compound: Clc1nnc2c3ccccc3ccn12
-- reply 135

-- ask Bench note: what growth did CCN(CC)Cc1cc(Nc2ccnc3ccc(OC)cc23)ccc1O show?
-- reply 75
